Test system: MM1S (Plasma Cell Myeloma)
TEST_PROTOCOL: Bliss excess, mean over the matrix (fraction); higher = more synergy
For each record, write down the corresponding Bliss excess.
No unit in the answer, only the number.

Recorded Bliss excess (compound CN(CCO)CC[C@H](CSc1ccccc1)Nc1ccc(S(=O)(=O)NC(=O)c2ccc(N3CCC([C@@H](O)c4ccccc4-c4ccc(Cl)cc4)CC3)cc2)cc1S(=O)(=O)C(F)(F)F [AZD4320] + C[C@@H]1COCCN1C2=NC(=NC(=C2)C3(CC3)[S@](=N)(=O)C)C4=C5C=CNC5=NC=C4 [AZD6738] (first compound max 1 µM, 7x7, partner max 10 µM) ): -0.0008

Quick note, Bliss excess for C=CCn1c(=O)c2cnc(Nc3ccc(N4CCN(C)CC4)cc3)nc2n1-c1cccc(C(C)(C)O)n1 [AZD1775] + C1CN(CCC1(C(=O)N[C@@H](CCO)C2=CC=C(C=C2)Cl)N)C3=NC=NC4=C3C=CN4 [Capivasertib] (first compound max 3 µM, partner max 3 µM) landed at 0.0171

Briefly, Bliss excess measured for Cc1c2c(nn1C)CSCc1cc(n(C)n1)CSc1cc(c3ccccc3c1)OCCCc1c(C(=O)O)n(C)c3c-2c(Cl)ccc13 [AZD5991] + Cc1cc2ncnn2cc1Nc1ncc2c(n1)n(C1CCOCC1)c(=O)n2C [AZD7648] (first compound max 1 µM, 7x7, partner max 10 µM) : 0.0085

* * *

Test system: Raji (Burkitt's Lymphoma)
TEST_PROTOCOL: combination Emax (second highest fraction inhibited in the dose matrix, 72 h); higher = more inhibition; extreme values may be limits of the assay
OBSERVED_PROPERTY: combination Emax
Would you mind answering with just the numeric figure?

Recorded result, COc1cccc(OCCCN)c1-c1cc(Nc2cnc(C#N)cn2)n[nH]1 [Prexasertib] + CN(C)CCCOc1ccc(-c2ccc3ncc4c(c3c2)n(C2CCOCC2)c(=O)n4C)cn1 [AZD0156] (first compound max 1 µM, 7x7, partner max 1 µM) , combination Emax: 0.959

// Cc1cc2ncnn2cc1Nc1ncc2c(n1)n(C1CCOCC1)c(=O)n2C [AZD7648] + C=CCn1c(=O)c2cnc(Nc3ccc(N4CCN(C)CC4)cc3)nc2n1-c1cccc(C(C)(C)O)n1 [AZD1775] (first compound max 10 µM, partner max 1 µM) : combination Emax value = 0.755

Reported combination Emax of Cc1nc(Nc2ncc(C(=O)Nc3c(C)cccc3Cl)s2)cc(N2CCN(CCO)CC2)n1 [Dasatinib] + CC(=O)Nc1cccc(-n2c(=O)n(C3CC3)c(=O)c3c(Nc4ccc(I)cc4F)n(C)c(=O)c(C)c32)c1 [Trametinib] (first compound max 2 µM, 7x7, partner max 1 µM) : 0.134

Entry CCN(CCO)CCCOc1ccc2c(Nc3cc(CC(=O)Nc4cccc(F)c4)[nH]n3)ncnc2c1 [AZD2811] + O=C(c1cc(Cc2n[nH]c(=O)c3ccccc23)ccc1F)N1CCN(C(=O)C2CC2)CC1 [Olaparib] (first compound max 1 µM, 7x7, partner max 10 µM) — recorded combination Emax = 0.341

The molecule listed as C[C@@H](c1ccc2nccn2c1)n1nnc2ncc(-c3cnn(C)c3)nc21 [Savolitinib] + CC1(C)CCC(CN2CCN(c3ccc(C(=O)NS(=O)(=O)c4ccc(NCC5CCOCC5)c([N+](=O)[O-])c4)c(Oc4cnc5[nH]ccc5c4)c3)CC2)=C(c2ccc(Cl)cc2)C1 [Venetoclax] (first compound max 1 µM, 7x7, partner max 1 µM) has a reported combination Emax of 0.171

Short answer for C[C@@H](c1ccc2nccn2c1)n1nnc2ncc(-c3cnn(C)c3)nc21 [Savolitinib] + Cc1c2c(nn1C)CSCc1cc(n(C)n1)CSc1cc(c3ccccc3c1)OCCCc1c(C(=O)O)n(C)c3c-2c(Cl)ccc13 [AZD5991] (first compound max 1 µM, 7x7, partner max 1 µM) : combination Emax was 0.751

# molecule CC(=O)c1c(C)c2cnc(Nc3ccc(N4CCNCC4)cn3)nc2n(C2CCCC2)c1=O [Palbociclib] + Cn1cnc2c(F)c(Nc3ccc(Br)cc3Cl)c(C(=O)NOCCO)cc21 [Selumetinib] (first compound max 10 µM, 7x7, partner max 10 µM) ; its combination Emax = 0.453

// Cn1cnc2c(F)c(Nc3ccc(Br)cc3Cl)c(C(=O)NOCCO)cc21 [Selumetinib] + CC(C)n1c(=O)n(C)c2cnc3cc(F)c(-c4ccc(OCCCN5CCCCC5)nc4)cc3c21 [AZD1390] (first compound max 10 µM, 7x7, partner max 0.3 µM) : combination Emax value = 0.233

The molecule COc1cccc(OCCCN)c1-c1cc(Nc2cnc(C#N)cn2)n[nH]1 [Prexasertib] + C[C@@H]1COCCN1C2=NC(=NC(=C2)C3(CC3)[S@](=N)(=O)C)C4=C5C=CNC5=NC=C4 [AZD6738] (first compound max 1 µM, 7x7, partner max 10 µM) showed combination Emax equal to 0.956

The reported combination Emax of the molecule CCc1c2c(nc3ccc(O)cc13)-c1cc3c(c(=O)n1C2)COC(=O)[C@]3(O)CC [SN-38] + CN(C)CCCOc1ccc(-c2ccc3ncc4c(c3c2)n(C2CCOCC2)c(=O)n4C)cn1 [AZD0156] (first compound max 0.3 µM, 7x7, partner max 1 µM) was 0.958

The value of combination Emax measured for the molecule CC(=O)c1c(C)c2cnc(Nc3ccc(N4CCNCC4)cn3)nc2n(C2CCCC2)c1=O [Palbociclib] + CN(CC[C@H](CSC1=CC=CC=C1)NC2=C(C=C(C=C2)S(=O)(=O)NC(=O)C3=CC=C(C=C3)N4CCC(CC4)[C@H](C5=CC=CC=C5C6=CC=C(C=C6)Cl)O)S(=O)(=O)C(F)(F)F)CCO [AZD4320] (first compound max 10 µM, 7x7, partner max 1 µM) turned out to be 0.455

Lab note: C=CCn1c(=O)c2cnc(Nc3ccc(N4CCN(C)CC4)cc3)nc2n1-c1cccc(C(C)(C)O)n1 [AZD1775] + C1CN(CCC1(C(=O)N[C@@H](CCO)C2=CC=C(C=C2)Cl)N)C3=NC=NC4=C3C=CN4 [Capivasertib] (first compound max 3 µM, partner max 3 µM) gave combination Emax of 0.977

Lab book: combination Emax of CC1(C)CCC(CN2CCN(c3ccc(C(=O)NS(=O)(=O)c4ccc(NCC5CCOCC5)c([N+](=O)[O-])c4)c(Oc4cnc5[nH]ccc5c4)c3)CC2)=C(c2ccc(Cl)cc2)C1 [Venetoclax] + C=CCn1c(=O)c2cnc(Nc3ccc(N4CCN(C)CC4)cc3)nc2n1-c1cccc(C(C)(C)O)n1 [AZD1775] (first compound max 1 µM, partner max 1 µM) noted as 0.725

Field combination Emax (entry Cn1cnc2c(F)c(Nc3ccc(Br)cc3Cl)c(C(=O)NOCCO)cc21 [Selumetinib] + C[C@@H]1COCCN1C2=NC(=NC(=C2)C3(CC3)[S@](=N)(=O)C)C4=C5C=CNC5=NC=C4 [AZD6738] (first compound max 10 µM, 7x7, partner max 10 µM) ) reads 0.722

* * *

Test system: COR-L88 (Small Cell Lung Carcinoma)
TEST_PROTOCOL: Bliss excess, mean over the matrix (fraction); higher = more synergy
OBSERVED_PROPERTY: Bliss excess
The answer should be a number; do not append a unit.

The reported Bliss excess of the compound CC1(C)CCC(CN2CCN(c3ccc(C(=O)NS(=O)(=O)c4ccc(NCC5CCOCC5)c([N+](=O)[O-])c4)c(Oc4cnc5[nH]ccc5c4)c3)CC2)=C(c2ccc(Cl)cc2)C1 [Venetoclax] + Cc1cc2ncnn2cc1Nc1ncc2c(n1)n(C1CCOCC1)c(=O)n2C [AZD7648] (first compound max 1 µM, 7x7, partner max 10 µM) was -0.0121

Memo: CC1(C)CCC(CN2CCN(c3ccc(C(=O)NS(=O)(=O)c4ccc(NCC5CCOCC5)c([N+](=O)[O-])c4)c(Oc4cnc5[nH]ccc5c4)c3)CC2)=C(c2ccc(Cl)cc2)C1 [Venetoclax] + CCN(CCO)CCCOc1ccc2c(Nc3cc(CC(=O)Nc4cccc(F)c4)[nH]n3)ncnc2c1 [AZD2811] (first compound max 1 µM, 7x7, partner max 1 µM) , reported Bliss excess: 0.053

* * *

Tested on: NCI-H1876 (Small Cell Lung Carcinoma)
TEST_PROTOCOL: Bliss excess, mean over the matrix (fraction); higher = more synergy
OBSERVED_PROPERTY: Bliss excess
Kindly provide the number alone.

Summary for this compound, NC1(C(=O)N[C@@H](CCO)c2ccc(Cl)cc2)CCN(c2ncnc3[nH]ccc23)CC1 [Capivasertib] + COc1nnc2ccc(N3CCC(c4ccc(OCCN5CCN(C)C(=O)[C@H]5C)cc4)CC3)nn12 [AZD5153] (first compound max 10 µM, 7x7, partner max 1 µM) : Bliss excess is 0.0774

The measured Bliss excess associated with CN(C)CCCOc1ccc(-c2ccc3ncc4c(c3c2)n(C2CCOCC2)c(=O)n4C)cn1 [AZD0156] + O=C(c1cc(Cc2n[nH]c(=O)c3ccccc23)ccc1F)N1CCN(C(=O)C2CC2)CC1 [Olaparib] (first compound max 3 µM, partner max 3 µM) reads 0.103

// field: Bliss excess; key: Cc1c2c(nn1C)CSCc1cc(n(C)n1)CSc1cc(c3ccccc3c1)OCCCc1c(C(=O)O)n(C)c3c-2c(Cl)ccc13 [AZD5991] + Cn1cnc2c(F)c(Nc3ccc(Br)cc3Cl)c(C(=O)NOCCO)cc21 [Selumetinib] (first compound max 1 µM, 7x7, partner max 3 µM) ; value = 0.0841

Value of Bliss excess reported for the compound COc1nnc2ccc(N3CCC(c4ccc(OCCN5CCN(C)C(=O)[C@H]5C)cc4)CC3)nn12 [AZD5153] + C=CCn1c(=O)c2cnc(Nc3ccc(N4CCN(C)CC4)cc3)nc2n1-c1cccc(C(C)(C)O)n1 [AZD1775] (first compound max 1 µM, partner max 1 µM) is 0.0224

What the record says about CCN(CCO)CCCOc1ccc2c(Nc3cc(CC(=O)Nc4cccc(F)c4)[nH]n3)ncnc2c1 [AZD2811] + O=C(c1cc(Cc2n[nH]c(=O)c3ccccc23)ccc1F)N1CCN(C(=O)C2CC2)CC1 [Olaparib] (first compound max 1 µM, 7x7, partner max 10 µM) : Bliss excess is -0.114

What the record says about CC(=O)Nc1cccc(-n2c(=O)n(C3CC3)c(=O)c3c(Nc4ccc(I)cc4F)n(C)c(=O)c(C)c32)c1 [Trametinib] + Cc1nc(-c2cn3c(n2)-c2ccc(-c4cnn(C(C)(C)C(N)=O)c4)cc2OCC3)n(C(C)C)n1 [Taselisib] (first compound max 1 µM, 7x7, partner max 10 µM) : Bliss excess is 0.132

The compound CN(CCO)CC[C@H](CSc1ccccc1)Nc1ccc(S(=O)(=O)NC(=O)c2ccc(N3CCC([C@@H](O)c4ccccc4-c4ccc(Cl)cc4)CC3)cc2)cc1S(=O)(=O)C(F)(F)F [AZD4320] + Cc1cc2ncnn2cc1Nc1ncc2c(n1)n(C1CCOCC1)c(=O)n2C [AZD7648] (first compound max 1 µM, 7x7, partner max 10 µM) showed Bliss excess equal to 0.0162

In plain terms, CN(C)CCCOc1ccc(-c2ccc3ncc4c(c3c2)n(C2CCOCC2)c(=O)n4C)cn1 [AZD0156] + C[C@@H]1COCCN1C2=NC(=NC(=C2)C3(CC3)[S@](=N)(=O)C)C4=C5C=CNC5=NC=C4 [AZD6738] (first compound max 1 µM, 7x7, partner max 10 µM) has a documented Bliss excess of 0.0226

Per the records, this compound ( COc1nnc2ccc(N3CCC(c4ccc(OCCN5CCN(C)C(=O)[C@H]5C)cc4)CC3)nn12 [AZD5153] + CC1(C)CCC(CN2CCN(c3ccc(C(=O)NS(=O)(=O)c4ccc(NCC5CCOCC5)c([N+](=O)[O-])c4)c(Oc4cnc5[nH]ccc5c4)c3)CC2)=C(c2ccc(Cl)cc2)C1 [Venetoclax] (first compound max 1 µM, 7x7, partner max 1 µM) ) has Bliss excess equal to 0.0029

Entry C[C@@H](c1ccc2nccn2c1)n1nnc2ncc(-c3cnn(C)c3)nc21 [Savolitinib] + CC1(C)CCC(CN2CCN(c3ccc(C(=O)NS(=O)(=O)c4ccc(NCC5CCOCC5)c([N+](=O)[O-])c4)c(Oc4cnc5[nH]ccc5c4)c3)CC2)=C(c2ccc(Cl)cc2)C1 [Venetoclax] (first compound max 1 µM, 7x7, partner max 1 µM) ; Bliss excess = -0.0486

The recorded Bliss excess for entry CCc1c2c(nc3ccc(O)cc13)-c1cc3c(c(=O)n1C2)COC(=O)[C@]3(O)CC [SN-38] + CN(C)CCCOc1ccc(-c2ccc3ncc4c(c3c2)n(C2CCOCC2)c(=O)n4C)cn1 [AZD0156] (first compound max 0.3 µM, 7x7, partner max 1 µM) equals -0.0111

The compound listed as COc1cccc(OCCCN)c1-c1cc(Nc2cnc(C#N)cn2)n[nH]1 [Prexasertib] + CN(C)CCCOc1ccc(-c2ccc3ncc4c(c3c2)n(C2CCOCC2)c(=O)n4C)cn1 [AZD0156] (first compound max 1 µM, 7x7, partner max 1 µM) shows Bliss excess equal to -0.044

Value of measured Bliss excess for the entry NC1(C(=O)N[C@@H](CCO)c2ccc(Cl)cc2)CCN(c2ncnc3[nH]ccc23)CC1 [Capivasertib] + CC(=O)c1c(C)c2cnc(Nc3ccc(N4CCNCC4)cn3)nc2n(C2CCCC2)c1=O [Palbociclib] (first compound max 10 µM, 7x7, partner max 10 µM) : -0.0263
